# Experimental Target: FAK (Homo sapiens, UniProt Q05397)
# Sequence (Q05397 whole entry): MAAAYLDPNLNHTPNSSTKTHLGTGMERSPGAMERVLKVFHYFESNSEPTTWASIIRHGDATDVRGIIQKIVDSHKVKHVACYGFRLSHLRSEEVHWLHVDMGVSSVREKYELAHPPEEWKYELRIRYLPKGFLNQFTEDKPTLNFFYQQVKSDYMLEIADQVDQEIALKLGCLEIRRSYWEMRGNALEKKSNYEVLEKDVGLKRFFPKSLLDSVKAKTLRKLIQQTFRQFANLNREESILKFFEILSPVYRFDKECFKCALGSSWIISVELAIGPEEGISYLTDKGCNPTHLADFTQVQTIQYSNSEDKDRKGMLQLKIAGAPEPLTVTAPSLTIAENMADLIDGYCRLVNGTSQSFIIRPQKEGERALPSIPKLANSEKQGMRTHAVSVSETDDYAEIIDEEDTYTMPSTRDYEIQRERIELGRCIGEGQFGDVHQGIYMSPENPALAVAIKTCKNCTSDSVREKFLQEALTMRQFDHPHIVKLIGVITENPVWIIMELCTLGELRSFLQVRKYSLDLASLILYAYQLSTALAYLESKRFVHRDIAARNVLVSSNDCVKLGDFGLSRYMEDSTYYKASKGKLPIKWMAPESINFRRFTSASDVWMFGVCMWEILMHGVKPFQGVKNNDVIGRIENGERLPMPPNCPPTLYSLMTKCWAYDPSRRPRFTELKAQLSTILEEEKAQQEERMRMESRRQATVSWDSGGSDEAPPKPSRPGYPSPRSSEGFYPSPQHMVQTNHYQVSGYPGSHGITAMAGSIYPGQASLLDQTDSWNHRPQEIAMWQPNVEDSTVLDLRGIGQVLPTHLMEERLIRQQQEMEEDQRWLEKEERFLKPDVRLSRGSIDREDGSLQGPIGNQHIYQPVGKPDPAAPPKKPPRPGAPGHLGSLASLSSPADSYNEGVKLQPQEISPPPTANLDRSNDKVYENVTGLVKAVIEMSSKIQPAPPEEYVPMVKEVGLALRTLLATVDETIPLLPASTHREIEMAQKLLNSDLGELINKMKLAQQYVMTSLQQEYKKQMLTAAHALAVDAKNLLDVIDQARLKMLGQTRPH
# Method Notes: Cell-based capture ELISA for inhibition of FAK autophosphorylation [pY397] in MiaPaCa2 cells
# Condition Description: MIA-PaCa2 cells, + 50% mouse plasma (Table 3); read-out: Mean FAK Cell Mechanistic IC50 + 50% mP MIA-PaCa2
pIC50: −log10 of the molar value.
Metric: pIC50

molecule="CCOP(=O)(Cc1ccc(Nc2ncc(C(F)(F)F)c(Nc3cccc4[nH]cc(C)c(=O)c34)n2)c(OC)c1)OCC [Example 204]" metric=pIC50 result="> 6.00"
molecule="CCOP(=O)(Cc1ccc(Nc2ncc(C(F)(F)F)c(Nc3cccc4[nH]cc(C)c(=O)c34)n2)cc1)OCC [Example 203]" metric=pIC50 result="> 6.00"
molecule="CCOc1cc(CP(=O)(OCC)OCC)ccc1Nc1ncc(C(F)(F)F)c(Nc2ccc([C@H]3CC[C@H](C(=O)O)CC3)c3c2C(=O)N(C)C3)n1 [Example 258]" metric=pIC50 result="> 6.00"
molecule="CCOP(=O)(Cc1ccc(Nc2ncc(C(F)(F)F)c(Nc3ccc(Br)cc3C(=O)NC)n2)c(OC)c1)OCC [Example 107]" metric=pIC50 result="> 6.00"

---

# Experimental Target: FAK (Homo sapiens, UniProt Q05397)
# Method Notes: Cell-based capture ELISA for inhibition of FAK autophosphorylation [pY397] in U87MG cells
# Condition Description: Mean FAK Cell Mechanistic IC50 + 50% mP U87MG, + 50% mouse plasma
Metric: IC50

molecule=CCOP(=O)(Cc1ccc(Nc2ncc(C(F)(F)F)c(Nc3ccc([C@H]4CC[C@@](C(=O)O)(N(C)C)CC4)c4c3C(=O)N(C)C4)n2)c(OC)c1)OCC metric=IC50 result="< 1000 nM"
molecule=CCOP(=O)(Cc1ccc(Nc2ncc(C(F)(F)F)c(Nc3ccc(N4CCC(C(=O)O)CC4)c4c3C(=O)N(C)C4)n2)c(OC)c1)OCC metric=IC50 result="< 1000 nM"
molecule=CCOP(=O)(Cc1ccc(Nc2ncc(C(F)(F)F)c(Nc3ccc([C@H]4CC[C@H](C(=O)O)CC4)c4c3C(=O)N(C)C4)n2)cn1)OCC metric=IC50 result="1000 to 10000 nM"
molecule=CCOP(=O)(Cc1ccc(Nc2ncc(C(F)(F)F)c(Nc3ccc([C@H]4CC[C@H](O)CC4)c4c3C(=O)N(C)C4)n2)nc1)OCC metric=IC50 result="< 1000 nM"
molecule=CCOP(=O)(Cc1ccc(Nc2ncc(C(F)(F)F)c(Nc3ccc([C@H]4CC[C@@H](C(=O)O)CC4)c4[nH]cc(C)c(=O)c34)n2)c(OC)c1)OCC metric=IC50 result="< 1000 nM"
molecule="CCOP(=O)(Cc1ccc(Nc2ncc(C(F)(F)F)c(Nc3ccc(C4CCC(N(C)CC)CC4)c4c3C(=O)N(C)C4)n2)c(OC)c1)OCC (stereo not drawn)" metric=IC50 result="< 1000 nM"
molecule=CCOC(=O)Cn1cc(C)c(=O)c2c(Nc3nc(Nc4ccc(CP(=O)(OCC)OCC)cc4OC)ncc3C(F)(F)F)cccc21 metric=IC50 result="< 1000 nM"
molecule=CCOP(=O)(Cc1ccc(Nc2ncc(C(F)(F)F)c(Nc3ccc([C@H]4CC[C@H](C(=O)O)CC4)c4[nH]cc(C)c(=O)c34)n2)c(OC)c1)OCC metric=IC50 result="1000 to 10000 nM"
molecule=CCOP(=O)(Cc1ccc(Nc2ncc(C(F)(F)F)c(Nc3ccc([C@H]4CC[C@@H](C(=O)N(C)C)CC4)c4c3C(=O)N(C)C4)n2)c(OC)c1)OCC metric=IC50 result="< 1000 nM"
molecule=CCOP(=O)(Cc1ccc(Nc2ncc(C(F)(F)F)c(Nc3ccc([C@H]4CC[C@H](O)CC4)cc3C(=O)N(C)C)n2)c(OC)c1)OCC metric=IC50 result="1000 to 10000 nM"
molecule=CCOP(=O)(Cc1ccc(Nc2ncc(C(F)(F)F)c(Nc3ccc([C@H]4CC[C@H](OCOP(=O)(O)O)CC4)c4c3C(=O)N(C)C4)n2)c(OC)c1)OCC metric=IC50 result="< 1000 nM"
molecule=CCOP(=O)(Cc1ccc(Nc2ncc(C(F)(F)F)c(Nc3ccc([C@H]4CC[C@H](O)CC4)cc3C(=O)NC)n2)c(OC)c1)OCC metric=IC50 result="< 1000 nM"

Data credit: patent US9096624B2
